B1: Tesmin, residues 368 to 403; numbered along this chain, Q9Y4I5 (parent)
chain: KGCNCRRSGCLKNYCECYEAQIMCSSICKCIGCKNY

- Variants of: B1
- MEASUREMENT NOTES: abundance fitness (aPCA) (normalised: wild type 0, dead -1); higher = more abundant; growth selection in yeast, the domain comes from the species named
- CONDITION DETAILS: Homo sapiens
// bucketize abundance fitness: low (below -0.4), mid (-0.4 to below -0.03), high (-0.03 or more)

>>> qualitative_label("N13H")
"low"
>>> qualitative_label("C28P")
"mid"
>>> qualitative_label("Q21E")
"high"
>>> qualitative_label("Y14T")
"mid"
>>> qualitative_label("R7K")
"high"
>>> qualitative_label("G2C")
"low"
>>> qualitative_label("S25L")
"low"
>>> qualitative_label("A20G")
"high"
>>> qualitative_label("L11R")
"mid"
>>> qualitative_label("C15R")
"mid"
